experiment: protein stability index of a GFP-peptide fusion (yeast GPS) (PSI 1-4); higher = more stable; sorted into four equal gates, so the index is relative within each strain; conditions: doa10∆
# protein stability index annotations

{"chain": "PKSASNTSSKRQKKKPT [IRR1]", "protein stability index": 2.78}
{"chain": "KDIKANLSSNVNFTEIG [YCS4]", "protein stability index": 2.83}
{"chain": "SQRPGARILARSERKRT [ITC1]", "protein stability index": 3.14}
{"chain": "IDDENITKLNKEIRAFD [SRB4]", "protein stability index": 3.44}
{"chain": "VKESNNYYSNKSNSTGN [REC8]", "protein stability index": 2.44}
{"chain": "LKRSTELLETVSLTKRK [YIL149C/MLP2]", "protein stability index": 1.66}
{"chain": "IKKPTSAVVSSNASRRK [RPN4]", "protein stability index": 2.47}
{"chain": "NRRKQSFVLNKNTIDFE [RPN4]", "protein stability index": 2.86}
{"chain": "HEVEEILNELQPNARAL [SMC1]", "protein stability index": 3.09}
{"chain": "EDNEMLEDLFSYRNGMA [YJR042W/NUP85]", "protein stability index": 2.02}
{"chain": "QDKEGIPPDQQRLIFAG [RPS31]", "protein stability index": 2.95}
{"chain": "GHSLGEYAALASLADVM [FAS1]", "protein stability index": 2.27}
{"chain": "LSFIQVRIDLGTIDKLQ [RPO31]", "protein stability index": 1.37}
{"chain": "ASAKSVRSGVSKSAPSK [YAR002W/NUP60]", "protein stability index": 2.96}
